Target or system: recombinant human Mcl-1 (residues 171-327) / Bim interaction (Homo sapiens (Human), UniProt Q07820)
Sequence (Q07820 171-327): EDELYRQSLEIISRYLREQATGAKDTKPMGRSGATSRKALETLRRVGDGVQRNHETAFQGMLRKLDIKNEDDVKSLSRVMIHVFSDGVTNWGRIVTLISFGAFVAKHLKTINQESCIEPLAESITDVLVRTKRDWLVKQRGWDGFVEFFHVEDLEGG
Method notes: biochemical
Type: binding
Measurement context: TR-FRET, Mcl-1(171-327) / biotin-Bim (51-76); read-out: Mcl-1 HTRF IC50
Measure name: IC50 (nM)
Numeric only. Scale: nM

Examples with answers:
Compound: C[C@@H]1[C@@H](C)C/C=C/[C@@](O)(C[S@@+](C)[O-])[C@@H]2CC[C@H]2CN2C[C@@]3(CCCc4cc(Cl)ccc43)COc3ccc(cc32)C(=O)NS1(=O)=O (stereo in doubt) [Example 100074]
Unit of measure: nM
IC50: 0.731
//
Compound: CCC[C@]1(OC)/C=C/C[C@H](C)[C@@H](C)S(=O)(=O)NC(=O)c2ccc3c(c2)N(C[C@@H]2CC[C@H]21)C[C@@]1(CCCc2cc(Cl)ccc21)CO3 [Example 100236]
Unit of measure: nM
IC50: 1.1
//
Compound: C[C@@H]1[C@@H](C)C/C=C/[C@@](O)(CC(=O)N(C)c2ccccc2)[C@@H]2CC[C@H]2CN2C[C@@]3(CCCc4cc(Cl)ccc43)COc3ccc(cc32)C(=O)NS1(=O)=O [Example 100247]
Unit of measure: nM
IC50: 0.542
//
Compound: CC[C@@H]1CC/C=C/[C@@](O)(CO)[C@@H]2CC[C@H]2CN2C[C@@]3(CCCc4cc(Cl)ccc43)COc3ccc(cc32)C(=O)NS1(=O)=O [Example 100034]
Unit of measure: nM
IC50: 0.877
//
Compound: C[C@@H]1[C@@H](C)CCC[C@@](O)(CC(=O)N2CCOCC2)[C@@H]2CC[C@H]2CN2C[C@@]3(CCCc4cc(Cl)ccc43)COc3ccc(cc32)C(=O)NS1(=O)=O [Example 100086]
Unit of measure: nM
IC50: 0.537

Tell us which IC50 value is on record for CC[C@@H]1CCCC[C@@](COC)(OC)[C@@H]2CC[C@H]2CN2C[C@@]3(CCCc4cc(Cl)ccc43)COc3ccc(cc32)C(=O)NS1(=O)=O [Example 100038]
1.66

----------
Here, each record is paired with measured log10 of IC50 data.
Target or system: recombinant human Mcl-1 (residues 171-327) / Bim interaction (Homo sapiens (Human), UniProt Q07820)
Method notes: biochemical
Assay type: binding
Measurement context: TR-FRET, Mcl-1(171-327) / biotin-Bim (51-76); read-out: Mcl-1 HTRF IC50
The base-10 logarithm of IC50, taken with IC50 in nM, is what appears here.

Examples with answers:
Compound: C[C@@H]1[C@@H](C)C/C=C/[C@@](O)(C#CCN(C)C)[C@@H]2CC[C@H]2CN2C[C@@]3(CCCc4cc(Cl)ccc43)COc3ccc(cc32)C(=O)NS1(=O)=O [Example 100294]
Meas value: -0.93
--
Compound: C[C@@H]1[C@@H](C)C/C=C/[C@@](O)(Cc2ccncn2)[C@@H]2CC[C@H]2CN2C[C@@]3(CCCc4cc(Cl)ccc43)COc3ccc(cc32)C(=O)NS1(=O)=O [Example 100151]
Meas value: -0.92
--
Compound: CO[C@@]1(C#CCCN2CCOC[C@@H]2C)/C=C/C[C@H](C)[C@@H](C)S(=O)(=O)NC(=O)c2ccc3c(c2)N(C[C@@H]2CC[C@H]21)C[C@@]1(CCCc2cc(Cl)ccc21)CO3
Meas value: -0.30
--
Compound: CO[C@@]1(CCCO)/C=C/C[C@H](C)[C@@H](C)S(=O)(=O)NC(=O)c2ccc3c(c2)N(C[C@@H]2CC[C@H]21)C[C@@]1(CCCc2cc(Cl)ccc21)CO3 [Example 100177]
Meas value: -0.59
--
Compound: C[C@@H]1[C@@H](C)C/C=C/[C@@](O)(C#CCO)[C@@H]2CC[C@H]2CN2C[C@@]3(CCCc4cc(Cl)ccc43)COc3ccc(cc32)C(=O)NS1(=O)=O [Example 100394]
Meas value: -0.62

Tell us which log10 of IC50 value is on record for CO[C@]1(c2cnc(Cl)n2C)/C=C/C[C@H](C)[C@@H](C)S(=O)(=O)NC(=O)c2ccc3c(c2)N(C[C@@H]2CC[C@H]21)C[C@@]1(CCCc2cc(Cl)ccc21)CO3 (single isomer, unassigned)
-0.84

Tell us which log10 of IC50 value is on record for "COCCN1CCN(CCO[C@@]2(C)/C=C/C[C@H](C)[C@@H](C)S(=O)(=O)NC(=O)c3ccc4c(c3)N(C[C@@H]3CC[C@H]32)C[C@@]2(CCCc3cc(Cl)ccc32)CO4)CC1"
-0.72

Tell us which log10 of IC50 value is on record for "CO[C@@]1(CCN2CCN(C)C(=O)C2)/C=C/C[C@H](C)[C@@H](C)S(=O)(=O)NC(=O)c2ccc3c(c2)N(C[C@@H]2CC[C@H]21)C[C@@]1(CCCc2cc(Cl)ccc21)CO3"
-1.24

Tell us which log10 of IC50 value is on record for COC(OC)c1cncc([C@]2(OC)/C=C/C[C@H](C)[C@@H](C)S(=O)(=O)NC(=O)c3ccc4c(c3)N(C[C@@H]3CC[C@H]32)C[C@@]2(CCCc3cc(Cl)ccc32)CO4)c1 (single isomer, unassigned)
-1.06

Tell us which log10 of IC50 value is on record for "COC1=NO[C@@]2(CCC[C@H](C)[C@@H](C)S(=O)(=O)NC(=O)c3ccc4c(c3)N(C[C@@H]3CC[C@H]32)C[C@@]2(CCCc3cc(Cl)ccc32)CO4)C1"
-0.07
